List of IC50 values.
Biological target: human CCR8 (UniProt P51685 1-355)
Test: CCL1 blocking
Value expressed in pM; do not type the unit.

binder	IC50, pM
HFB11-8 (antibody, V domains shown) VH: EVQLVETGGGLVQPKGSLKLSCAASGFRFNTNAMNWVRQAPGKGLEWVARIRSKSNNYATHYVDSVKDRFTVSRDDSQSMLYLQMNNLKAEDTAMYYCVRGSDNNYYYAMDYWGQGTSVTVSS VL: DIVMTQAAPSVPVTPGESVSISCRSSKSLLHSNGNTYLYWFLQRPGQSPQLLIYRMSNLASGVPDRFSGSGSGTSFTLRISRVEVEDVGVYYCMQHLEYPFTFGSGTKLEIK	452
HFB11-5 (antibody, V domains shown) VH: EVQLVESGGGLVQPRGSLKLSCTASGFSFNAYAMNWVRQAPGKGLEWVARIRTKSNNYATYYADSVKDRFTISRDDSESMLYLQMKNLKTEDTAMYYCVRGGYGNGGYYFDYWGQGTTLTVSS VL: DIVMTQAAPSVTVTPGESASISCRSSKSLLHRNGNSYLYWFLQRPGQSPQLLIYRISNLASGVPDRFSGSGSGTAFTLRISRVEAEDVGVYYCMQHLEYPFTFGSGTKLEIK	413
HFB11-3 (antibody, V domains shown) VH: EVQLVESGGGLVQPQGSLKLSCAASGFSFNTYAMNWVRQAPGKGLQWVARIRSKSNNYATYYADSVKDRFTISRDDSESMLYLQMNNLKTEDAAMYYCVRGKDANYFYAMDYWGQGTSVTVSS VL: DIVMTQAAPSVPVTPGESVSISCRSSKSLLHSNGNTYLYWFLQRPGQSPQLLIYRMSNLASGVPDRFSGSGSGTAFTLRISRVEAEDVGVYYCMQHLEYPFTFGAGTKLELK	1300

// HFB11-2 (antibody, V domains shown) VH: EVQLVESGGGLVQPKGSLKLSCAASGFSFNTYAMNWVRQAPGKGLEWVARIRSKSNNYATYYADSVKDRFTISRDDSERMLYLQMNNLKTEDTAMYYCVRGGSYYSNHYFDYWGQGTTLTVSS VL: DIVMTQAAPSVPVTPGESVSISCRSSKSLLHSNGNTYLYWFLQRPGQSPQLLIYQMSNLASGVPDRFSGSGSGTAFTLRISRVEAEDVGVYYCMQHLEYPFTFGAGTKLELK : IC50 value = 1330

So for HFB11-10 (antibody, V domains shown) VH: EVQLVETGGGLVQPKGSLKLSCAASGFRFNTNAMNWVRQAPGKDLEWVARIRSKSNNYATYYADSVKDRFTISRDDSQSMLYLQMNNVKTEDTAMYYCVRGSDNNYYYAMDYWGQGTSVTVSS VL: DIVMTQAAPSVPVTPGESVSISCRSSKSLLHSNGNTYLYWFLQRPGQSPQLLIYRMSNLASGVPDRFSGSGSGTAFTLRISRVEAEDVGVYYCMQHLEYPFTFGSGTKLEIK , the logged IC50 turned out to be 428

Just for reference, patent US20250019451A1 is where these values come from.
